FYI, the data here is from patent US5622828.

TEST SYSTEM: T1, secretory phospholipase A2 (sPLA2) (Homo sapiens, UniProt P14555 P14555:21-144)
T1 sequence: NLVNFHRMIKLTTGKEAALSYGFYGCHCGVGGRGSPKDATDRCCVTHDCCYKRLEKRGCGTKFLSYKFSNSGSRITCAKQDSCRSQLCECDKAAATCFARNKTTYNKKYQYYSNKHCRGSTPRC
ASSAY TEXT: filter; monophasic; TBSC, 37 C
EXPERIMENTAL SETUP: tags: supplied by Eli Lilly; hairpin with asymmetric internal loop
pKd: −log10 of the molar value.
Measured pKd, listed per entry.

{"columns": ["BINDER", "pKd"],
 "data": [
  ["NN11 (ssRNA, 2'-NH2 all C and U) RNA: GGGAAAAGCGAAUCAUACACAAGACCGGCCGGGGAAACCCGAGGUCCGAGGUAACGCAUGGCGCCUCACCGAGUCGCUCCGCCAGAGACCAACCGAGAA", 8.55],
  ["NN29 (ssRNA, 2'-NH2 all C and U) RNA: GGGAAAAGCGAAUCAUACACAAGACCGGCCCGGUGUGUAGCCGGAGAUCCGAGACUUGCUGAACGAGGUGCCACGGCUCCGCCAGAGACCAACCGAGAA", 8.60]
]}
